Listed here: items and their measured shrunken log2 fold change.
# Test system: Escherichia coli TOP10
# method.description: shrunken log2 fold change of peptide-encoding DNA abundance (4.5 h post-induction vs induction); higher = less antimicrobial activity (less host growth inhibition)
# condition.details: time post-induction: 4.5 h; library: site-saturation at positions 5, 18, 19, 20

// solved cases for shrunken log2 fold change follow
- primary.sequence: "RRIRVRPPRLPRPRPRPAMEPRP"
  measurement.target: "Escherichia coli TOP10"
  result: -0.139
- primary.sequence: "RRIRIRPPRLPRPRPRPHDYPRP"
  measurement.target: "Escherichia coli TOP10"
  result: -0.262
- primary.sequence: "RRIRIRPPRLPRPRPRPEVNPRP"
  measurement.target: "Escherichia coli TOP10"
  result: -0.294
- primary.sequence: "RRIRMRPPRLPRPRPRPYKWPRP"
  measurement.target: "Escherichia coli TOP10"
  result: -0.141
- primary.sequence: "RRIRFRPPRLPRPRPRPNPSPRP"
  measurement.target: "Escherichia coli TOP10"
  result: -0.125

// query GET shrunken log2 fold change where system = Escherichia coli TOP10 and item = RRIRERPPRLPRPRPRPYQFPRP
// result -0.159

// query GET shrunken log2 fold change where system = Escherichia coli TOP10 and item = RRIRTRPPRLPRPRPRPATMPRP
// result -0.0723

// query GET shrunken log2 fold change where system = Escherichia coli TOP10 and item = RRIRSRPPRLPRPRPRPCYNPRP
// result -0.513

// query GET shrunken log2 fold change where system = Escherichia coli TOP10 and item = RRIRERPPRLPRPRPRPPYLPRP
// result -0.0371

----------
# Tested on: Escherichia coli TOP10
# method.description: shrunken log2 fold change of peptide-encoding DNA abundance (4.5 h post-induction vs induction); higher = less antimicrobial activity (less host growth inhibition)
# condition.details: time post-induction: 4.5 h; library: site-saturation at positions 5, 18, 19, 20
Listed here: items and their measured shrunken log2 fold change.
Form field (numeric): enter value without unit.

// solved cases for shrunken log2 fold change follow
- primary.sequence: "RRIRTRPPRLPRPRPRPCHIPRP"
  shrunken log2 fold change: -0.292
- primary.sequence: "RRIRQRPPRLPRPRPRPAECPRP"
  shrunken log2 fold change: 0.17
- primary.sequence: "RRIRWRPPRLPRPRPRPRNFPRP"
  shrunken log2 fold change: 0.0292
- primary.sequence: "RRIRLRPPRLPRPRPRPTTGPRP"
  shrunken log2 fold change: 0.0715
- primary.sequence: "RRIRMRPPRLPRPRPRPVFQPRP"
  shrunken log2 fold change: 0.168
- primary.sequence: "RRIRVRPPRLPRPRPRPWIMPRP"
  shrunken log2 fold change: -0.0202
- primary.sequence: "RRIRARPPRLPRPRPRPVLAPRP"
  shrunken log2 fold change: 1.18
- primary.sequence: "RRIRFRPPRLPRPRPRPNMTPRP"
  shrunken log2 fold change: -0.43
- primary.sequence: "RRIRPRPPRLPRPRPRPSWGPRP"
  shrunken log2 fold change: -0.0123
- primary.sequence: "RRIRFRPPRLPRPRPRPGPAPRP"
  shrunken log2 fold change: 0.544

// query GET shrunken log2 fold change where system = Escherichia coli TOP10 and item = RRIRARPPRLPRPRPRPPDSPRP
// result 0.212

// query GET shrunken log2 fold change where system = Escherichia coli TOP10 and item = RRIRCRPPRLPRPRPRPYVYPRP
// result -0.834

// query GET shrunken log2 fold change where system = Escherichia coli TOP10 and item = RRIRRRPPRLPRPRPRPEFCPRP
// result 0.579

// query GET shrunken log2 fold change where system = Escherichia coli TOP10 and item = RRIRQRPPRLPRPRPRPNMCPRP
// result -0.195

// query GET shrunken log2 fold change where system = Escherichia coli TOP10 and item = RRIRCRPPRLPRPRPRPTMMPRP;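 also: peptides expressed intracellularly from a pBAD plasmid library in pooled LB shake-flask culture, induced with 0.3% L-arabinose, DNA abundance read by NGS, three biological replicates, DESeq2 with apeglm shrinkage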
// result -0.0339
